Here the recorded Ratio WT/mutant (H1975) is given for each entry.
- EXPERIMENTAL_SYSTEM: EGFR double mutation L858R/T790M (H1975 cells) (Homo sapiens (Human), UniProt P00533, L858R/T790M)
- TEST: Phospho-EGFR signaling immunoblot in H1975 cells
- Assay type: cell-based
- DETAILS: signaling EC50 WT EGFR / H1975
- Protocol: A431 human epidermoid carcinoma, H1975 human NSCLC and HCC827 human NSCLC adenocarcinoma cells were obtained from the American Type Culture Center (Manassas, Va.). A431 cells were grown in DMEM (Invitrogen, Carlsbad, Calif.) supplemented with 10% FBS (HyClone, South Logan, Utah) and 1% Penicillin-Streptomycin (P/S, Lonza, Walkersville, Md.). […] Phospho-protein signals were quantitated using Odyssey Infrared Imaging (Li-Cor Biosciences). […]

Sample answers from the record:
C=CC(=O)Nc1cccc(Nc2nc(Nc3ccc(N4CCN(C(C)=O)CC4)cc3OC)ncc2Cl)c1; >1
C=CC(=O)Nc1cccc(Nc2nc(Nc3ccc(N4CCOCC4)cc3OC(F)F)ncc2C(F)(F)F)c1; >15

Could you now look at the following compound, please?
**Query** Requested field: Ratio WT/mutant (H1975). Item: C=CC(=O)Nc1cccc(Oc2nc(Nc3ccc(N4CCN(C(=O)CO)CC4)cc3OC)ncc2Cl)c1
**Result** >5
